- protocol-text: Examination of solubility in organic solvents
- Assay type: physicochemical
- conditions-used: organic solvent or mixture, thermodynamic from solid
observable: solubility

> print(dat)
                                   molecule      observed
1  c1cc(-c2cccc(-c3cccc4c3sc3ccccc34)c2)cc(-c2cnc3c4ccccc4c4ccccc4c3n2)c1 [2mDBTBPDBq-II, reference compound]  < 1000 µg/mL

* * *

- protocol-text: Examination of solubility in organic solvents
- Format: physicochemical
- conditions-used: organic solvent or mixture, thermodynamic from solid; toluene; 10 mg compound in 1 mL, then 10 mL; room temperature, then ultrasonic wave irradiation and heating; read-out: Solubility in Toluene
observable: solubility

> print(dat)
                                   compound  observable       observed
1  CC1(C)c2ccccc2-c2ccc(-c3cccc(-c4cccc(-c5cnc6c7ccccc7c7ccccc7c6n5)c4)c3)cc21 [2mFBPDBq]  solubility  > 10000 µg/mL

meta.source: patent US20180006232A1
